Source listed as PubChem BioAssay (Tox21).

Assay: qHTS assay to identify small molecule antagonists of the thyroid receptor (TR) signaling pathway (AID 743065); also: nearly all actives have a fitted effect of over 55% in size
Settings: GH3.TRE-Luc, T3-stimulated luciferase inhibition, 23.5 h; series mostly up to 70.3 µM
Inconclusive results are not listed. Calls of active or inactive are those of the source. Calls follow the shape of the dose curve; as a rule, active = well fitted inhibition curve with a large enough effect in the repeat runs; inconclusive = weak or mixed curves; inactive = no such curve, though single readings can be large or run the other way.
# output must be one of 1 = active, 0 = inactive

Worked cases, answers included:
* O=C(Oc1ccccc1)Oc1ccccc1 | 0
* CCc1oc2ccccc2c1C(=O)c1cc(I)c(O)c(I)c1 | 1
* C=C(C)c1cccc(C(=C)C)c1 | 0

Q. Please let me know the test result on file for `Cc1cc(-c2ccc(N=Nc3cc(S(=O)(=O)O)c4ccccc4c3N)c(C)c2)ccc1N=Nc1cc(S(=O)(=O)O)c2ccccc2c1N` .
A. 1

Q. Please share the test call associated with `FC(F)(F)c1cccc(Cl)c1` .
A. 0

---

Experiment: qHTS RealTime-Glo MT Cell Viability Assay in HEK293 cells - 32 hour (AID 1224868); also: nearly all actives have a fitted effect of over 50% in size
Settings: RealTime-Glo luminescence; series mostly up to 76.8 µM
Source text: National Center for Advancing Translational Sciences [NCATS] NIH Chemical Genomics Center [NCGC] U.S. Environmental Protection Agency [EPA] National Institutes of Environmental Health Sciences [NIEHS] National Toxicology Program [NTP] U.S. Food and Drug Administration [FDA] Measure of cell viability is critical in the cell-base assay. Analysis of cell viability is necessary for the characterization of cell responses to cytotoxic drugs and environmental stress. […]
Results filed as inconclusive are left out. Active and inactive are the calls of the source. The call rests on the fitted dose curve; in most records, active means well fitted cell-killing curve with a large enough effect in the repeat runs; inconclusive means weak or mixed curves, or effect the other way; inactive means flat fitted curve, though single readings scatter.
Reply using exactly one outcome from active, inactive

Solved entries (count: 5):
- O=C(O)Cc1ccccc1Nc1c(Cl)cccc1Cl: inactive
- O=S(=O)(O)c1ccccc1/C=C/c1ccc(-c2ccc(/C=C/c3ccccc3S(=O)(=O)O)cc2)cc1: inactive
- Cc1cc(-n2nc3ccc(Cl)cc3n2)c(O)c(C(C)(C)C)c1: inactive
- CCCCC(CC)COC(=O)CCCCC(=O)OCc1ccccc1 (stereo not drawn): inactive
- COCCOc1cc2cc(C(=O)NC3CCN(C(C)C)CC3)n(CC(=O)Nc3ccc(Cl)cn3)c2cn1: inactive

Q. Recorded call for `CCCC(=O)OCCc1ccccc1` ?
A. inactive

Q. Outcome? `CNC(=O)c1ccccc1Sc1ccc2c(/C=C/c3ccccn3)n[nH]c2c1`
A. active

Q. What is the recorded call for this compound in the test? `O=C(Oc1ccccc1)Oc1ccccc1`
A. inactive

Q. Status in this test for `CN(C)C(=O)COC(=O)Cc1ccc(OC(=O)c2ccc(N=C(N)N)cc2)cc1` ?
A. inactive

Q. For `CC[C@H](C)COC(=O)/C=C/c1ccc(N=Cc2ccc(OC)cc2)cc1` , which call appears in the assay record?
A. active

Q. Any idea what this test logged for `OC[C@@H](O)[C@@H](O)CO` ?
A. inactive

Q. Answer briefly: the call reported for `CC(C)OC(=O)C(O)(CC(=O)O)CC(=O)O` in this assay.
A. inactive

Q. Check the results log: what was the call for `O=C(c1ccc(O)c(O)c1)c1ccc(O)cc1O` ?
A. active

---

Assay: Caspase-3/7 induction in HepG2 cells by small molecules, qHTS cell viability counter screen (AID 1346981); also: nearly all actives have a fitted effect of over 30% in size
Conditions: CellTiter-Fluor fluorescence, 17 h; series mostly up to 92.4 µM
Inconclusive results are not listed. Calls of active or inactive are those of the source. Calls follow the shape of the dose curve; as a rule, active = well fitted cell-killing curve with a large enough effect in the repeat runs; inconclusive = weak or mixed curves, or effect the other way; inactive = flat fitted curve, though single readings scatter.
Just give me one of these, please: active, inactive

Q. Recorded test call requested for `NC(=O)c1cccc([N+](=O)[O-])c1`
A. inactive

---

Assay: qHTS assay to identify small molecule HDAC inhibitors - cell viability counter screen (AID 1259365); also: nearly all actives have a fitted effect of over 50% in size
Settings: HCT-116 viability, CellTiter-Glo ATP luminescence, 2 h; series mostly up to 92.4 µM
The source made the active and inactive calls. Calls come from the whole dose curve; as a rule, active = well fitted cell-killing curve with a large enough effect in the repeat runs; inconclusive = weak or mixed curves, or effect the other way; inactive = flat fitted curve, though single readings scatter.
Entry note: the call must match one of t for active, f for inactive

Past entries and their recorded results:
- Cc1ccc(C(C)C)cc2c(C)ccc1-2: f
- CCCCCC/C=C\CCCCCCCC(=O)O: f
- CC[N+](CC)(CC)CCOc1ccc(/C=C/c2ccccc2)cc1: f
- CN(C)C(=O)COC(=O)Cc1ccc(OC(=O)c2ccc(N=C(N)N)cc2)cc1: f
- O=C(O)c1cc(O)c2ccccc2c1O: t

Q. Please let me know the test result on file for `CCCC[P+](C)(CCCC)CCCC` .
A. f

Q. // outcome(item) with item = `O=C(O)c1cccc(C(F)(F)F)c1`
A. f

---

Molecular target: Nuclear receptor ROR-gamma (Homo sapiens) (UniProt P51449)
Assay: qHTS assay to identify small molecule antagonists of the retinoid-related orphan receptor gamma (ROR-gamma) signaling pathway (AID 1159521; also: nearly all actives have a fitted effect of over 50% in size)
Settings: Tet-on RORgamma CHO cells, RORE-luciferase, 16 h; series mostly up to 92.4 µM
Description: U.S. Tox21 Program National Center for Advancing Translational Sciences [NCATS] NIH Chemical Genomics Center [NCGC] U.S. Environmental Protection Agency [EPA] National Institutes of Environmental Health Sciences [NIEHS] National Toxicology Program [NTP] U.S. Food and Drug Administration [FDA] […] Reporter gene activity was induced using Doxycycline Hyclate and measured after 16 hr incubation. […]
Records with an inconclusive call do not appear. Calls of active or inactive are those of the source. The call rests on the fitted dose curve; in most records, active means well fitted inhibition curve with a large enough effect in the repeat runs; inconclusive means weak or mixed curves, or effect the other way; inactive means no such curve, though single readings can be large or run the other way.
Tick one outcome: T for active, F for inactive

* Cc1ccc(-c2ccccc2)cc1 | F
* Nc1nc2c(ncn2COCCO)c(=O)[nH]1 | F
* Clc1ccnc(Cl)n1 | F
* CCCCCC(C)OC(=O)COc1ccc(Cl)c2cccnc12 (stereo not drawn) | F
* CCCCCCCCCCC[C@@H](C[C@@H]1OC(=O)[C@H]1CCCCCC)OC(=O)[C@H](CC(C)C)NC=O | T
* CC(C)NC[C@@H](O)COc1ccc(CC(N)=O)cc1 | F
* Fc1ccc(C(c2ccc(F)cc2)N2CCNCC2)cc1 | F
* COc1ccc2c(c1)c(CC(=O)OC/C=C(\C)CC/C=C(\C)CCC=C(C)C)c(C)n2C(=O)c1ccc(Cl)cc1 | F
* COC1=C(OC)C(=O)C(CCCCCCCCCCO)=C(C)C1=O | T
* CC(CCc1ccccc1)NCC(O)c1ccc(O)c(C(N)=O)c1 (stereo not drawn) | F

Q. Fill in: this test's call for `Cc1cc(C(C)(C)C)cc(C)c1CC1=NCCN1` is ___
A. F

Q. Test call, this compound: `COc1cc(C)ccc1O`
A. F

Q. Lab log entry: `c1ccsc1` — outcome as called in the assay?
A. F

---

Biological target: Cytochrome P450 3A4 (Homo sapiens) (UniProt P08684)
Sequence (P08684 whole entry, looked up): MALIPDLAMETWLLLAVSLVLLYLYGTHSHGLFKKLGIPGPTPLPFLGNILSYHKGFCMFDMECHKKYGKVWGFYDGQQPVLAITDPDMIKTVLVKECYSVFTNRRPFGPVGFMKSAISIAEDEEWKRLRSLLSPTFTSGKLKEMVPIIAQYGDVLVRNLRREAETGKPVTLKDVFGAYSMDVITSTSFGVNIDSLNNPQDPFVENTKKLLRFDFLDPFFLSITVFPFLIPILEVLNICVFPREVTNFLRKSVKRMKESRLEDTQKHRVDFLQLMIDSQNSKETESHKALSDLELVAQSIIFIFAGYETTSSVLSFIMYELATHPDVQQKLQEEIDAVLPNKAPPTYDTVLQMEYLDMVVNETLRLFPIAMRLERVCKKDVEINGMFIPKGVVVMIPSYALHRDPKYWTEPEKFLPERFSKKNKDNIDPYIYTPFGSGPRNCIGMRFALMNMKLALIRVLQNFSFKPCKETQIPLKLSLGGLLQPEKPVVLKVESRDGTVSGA
Assay: Cytochrome P450 Family 3 Subfamily A Member 4 (CYP3A4) small molecule antagonists: luciferase reporter qHTS assay (AID 1671201); also: nearly all actives have a fitted effect of over 50% in size
Conditions: P450-Glo CYP3A4 enzyme, luciferin luminescence, 1 h; series mostly up to 115 µM
Records with an inconclusive call do not appear. Activity calls are given as the source filed them. Calls follow the shape of the dose curve; as a rule, active = well fitted inhibition curve with a large enough effect in the repeat runs; inconclusive = weak or mixed curves; inactive = no such curve, though single readings can be large or run the other way.
// one of active, inactive, no free text

# example entries with known answers
* S=c1nccc[nH]1 | inactive
* c1ccsc1 | inactive
* O=C(O)c1cc(-c2ccc(F)cc2F)ccc1O | inactive
* O=C(c1ccc(O)c(O)c1)c1ccc(O)cc1O | active
* CCCCCc1ccc(Cl)cc1 | inactive

Shifting focus to the compound that follows.
Q. Could you kindly confirm the outcome this assay logged for `CCCCCCCCCCCCOC(=O)c1ccc(O)cc1` ?
A. active

---

Experiment: qHTS RealTime-Glo MT Cell Viability Assay in HEK293 cells - 32 hour (AID 1224868); also: nearly all actives have a fitted effect of over 50% in size
Conditions: RealTime-Glo luminescence; series mostly up to 76.8 µM
From the text: National Center for Advancing Translational Sciences [NCATS] NIH Chemical Genomics Center [NCGC] U.S. Environmental Protection Agency [EPA] National Institutes of Environmental Health Sciences [NIEHS] National Toxicology Program [NTP] U.S. Food and Drug Administration [FDA] Measure of cell viability is critical in the cell-base assay. Analysis of cell viability is necessary for the characterization of cell responses to cytotoxic drugs and environmental stress. […]
Records with an inconclusive call do not appear. Activity calls are given as the source filed them. Calls follow the shape of the dose curve; as a rule, active = well fitted cell-killing curve with a large enough effect in the repeat runs; inconclusive = weak or mixed curves, or effect the other way; inactive = flat fitted curve, though single readings scatter.
Form entry, call: pick from yes = active, no = inactive

Previously resolved entries follow.
- OC[C@H]1O[C@H](O[C@H]2O[C@H](CO)[C@@H](O)[C@H](O)[C@H]2O)[C@H](O)[C@@H](O)[C@@H]1O: no
- O=[N+]([O-])c1ccc(O)cc1C(F)(F)F: yes
- COc1ccc2c(c1)c(CC(=O)OC/C=C(\C)CC/C=C(\C)CCC=C(C)C)c(C)n2C(=O)c1ccc(Cl)cc1: no
- OC1CCCc2ccccc21 (centres undefined): no
- S=c1nccc[nH]1: no
- c1ccc(SSc2ccccc2)cc1: no
- Cc1c(F)c(N2CCNC(C)C2)cc2c1c(=O)c(C(=O)O)cn2C1CC1 (centres undefined): no
- NC(=S)NC(N)=S: no

Q. Outcome logged for `CCc1cccc(CC)c1NC(=O)CN(CC(=O)O)CC(=O)O` in this assay:
A. no

Q. Which outcome did this test record for the compound `Clc1sc(Cl)c(Cl)c1Cl` ?
A. no

Q. What was the test verdict on `O=C(Nc1ccc2c(O)c(N=Nc3ccc(N=Nc4ccc(S(=O)(=O)O)cc4)cc3)c(S(=O)(=O)O)cc2c1)c1ccccc1` ?
A. no

Q. Recorded test call requested for `Nc1nc(-c2ccccc2)cs1`
A. no

Q. Hi team, can someone confirm the assay call for `C#Cc1ccc(-c2ccccc2F)cc1` ?
A. no

Q. For this compound, state the assay outcome: `O=C(O)Cc1ccc2c(c1)C(=O)c1ccccc1CO2`
A. no

Q. Which outcome did this test record for the compound `Cc1cc(C)c(/C=C2\C(=O)Nc3ccccc32)[nH]1` ?
A. no

Q. Can you look up the reported call for `CC1(C)[C@@H](O)CC[C@]2(C)[C@H]3C(=O)C=C4[C@@H]5C[C@@](C)(C(=O)O)CC[C@]5(C)CC[C@@]4(C)[C@]3(C)CC[C@@H]12` for me?
A. no

Q. What classification did `CCCCCc1ccc(Cl)cc1` end up with in this test?
A. yes
